# System: UACC-257 melanoma
# Test Summary: NCI tumour cell line growth inhibition, 48 h
Metric Name: TGI (µM)
State the answer as a number, implicitly in µM.

Example cases with answers are listed next.
- Compound: "O=C(O)c1cc(N=Nc2ccc([N+](=O)[O-])cc2)ccc1O"
  TGI [µM]: 74.7
- Compound: "CC1=C(C(=O)Nc2cccc(Cl)c2)C(c2ccccc2O)C(C(=O)Nc2cccc(Cl)c2)=C(C)N1"
  TGI [µM]: 36.6
- Compound: "Nc1cn(C2OC(CC(c3ccccc3)(c3ccccc3)c3ccccc3)C(O)C2O)c(=O)[nH]c1=O (stereo not given)"
  TGI [µM]: 52.3

I am curious: what TGI value has been reported for OC1(c2ccccc2)CC2CCC(C1)N2CCCC(O)(c1ccccc1)c1ccccc1 (stereo not given) ? 4

I am curious: what TGI value has been reported for CNC(=O)c1cc(Oc2ccc3nc(NC(=O)Nc4ccc(CN5CCOCC5)c(C(F)(F)F)c4)sc3c2)ccn1 ? 5.59

I am curious: what TGI value has been reported for Clc1ccc(-c2cc(-c3ccccc3)nc(N3CCN(CCCNc4ccnc5cc(Cl)ccc45)CC3)n2)cc1 ? 3.89

I am curious: what TGI value has been reported for CCOC(=O)NN(C(=O)OCC)c1ccc(N=Nc2ccc(OC)cc2)n1C ? 56.1

I am curious: what TGI value has been reported for CC[C@H](C)[C@H](NC(=O)N(CCC#N)CCN(CCN(C(=O)N[C@@H](Cc1ccccc1)C(=O)OC)c1ccccc1)C(=O)N[C@H](C(=O)OC)C(C)C)C(=O)OC ? 29
